- Test system: 648629-189-R-J1-PDC complex spheroids viability
- Assay: Anticancer human tumor 648629-189-R-J1-PDC patient-derived bladder carcinoma cell line growth inhibition [CLK]; active means viability on the fitted dose curve at most 10% of control; inactive means the rest
- Details: second compound 3.16 µM; first compound 0.0316 µM
Possible outcomes: Yes = active, No = inactive

[[record]]
molecule = "CC1(C)CCC(CN2CCN(c3ccc(C(=O)NS(=O)(=O)c4ccc(NCC5CCOCC5)c([N+](=O)[O-])c4)c(Oc4cnc5[nH]ccc5c4)c3)CC2)=C(c2ccc(Cl)cc2)C1 + CNC(=O)c1ccc(Nc2nc(OC3CCCC3)c3c(-c4ccc5nc(C)oc5c4)c[nH]c3n2)c(OC)c1"
assigned_label = "No"

[[record]]
molecule = "Nc1ccn(C2OC(CO)C(O)C2(F)F)c(=O)n1 (stereo unspecified) + CN1CCN(c2cc(C(=O)Nc3cc4cc(-c5cnn(C)c5)ccc4cn3)ccn2)CC1"
assigned_label = "Yes"

[[record]]
molecule = "O=C(c1cc(Cc2n[nH]c(=O)c3ccccc23)ccc1F)N1CCN(C(=O)C2CC2)CC1 + CNC(=O)c1ccc(Nc2nc(OC3CCCC3)c3c(-c4ccc5nc(C)oc5c4)c[nH]c3n2)c(OC)c1"
assigned_label = "No"

[[record]]
molecule = "COc1c(OCCCN2CCOCC2)ccc2c3n(c(=NC(=O)c4cnc(N)nc4)nc12)CCN3 + CN1CCN(c2cc(C(=O)Nc3cc4cc(-c5cnn(C)c5)ccc4cn3)ccn2)CC1"
assigned_label = "Yes"

[[record]]
molecule = "C=CC(=O)N1CCN(c2nc(=O)n(-c3c(C)ccnc3C(C)C)c3nc(-c4c(O)cccc4F)c(F)cc23)C(C)C1 (stereo unspecified) + CNC(=O)c1ccc(Nc2nc(OC3CCCC3)c3c(-c4ccc5nc(C)oc5c4)c[nH]c3n2)c(OC)c1"
assigned_label = "No"

[[record]]
molecule = "CC(CO)NC(=O)c1cc(-c2ccc(Cl)cc2)nn(-c2cnn(C)c2)c1=O (stereo unspecified) + CNC(=O)c1ccc(Nc2nc(OC3CCCC3)c3c(-c4ccc5nc(C)oc5c4)c[nH]c3n2)c(OC)c1"
assigned_label = "No"

[[record]]
molecule = "Nc1ccn(C2OC(CO)C(O)C2(F)F)c(=O)n1 (stereo unspecified) + CNC(=O)c1ccc(Nc2nc(OC3CCCC3)c3c(-c4ccc5nc(C)oc5c4)c[nH]c3n2)c(OC)c1"
assigned_label = "No"

[[record]]
molecule = "Nc1ccccc1NC(=O)c1ccc(CNC(=O)OCc2cccnc2)cc1 + CN1CCN(c2cc(C(=O)Nc3cc4cc(-c5cnn(C)c5)ccc4cn3)ccn2)CC1"
assigned_label = "Yes"

[[record]]
molecule = "C=C(F)C(=O)N1CCN(c2nc(OCC3CCCN3C)nc3c2CCN(c2cccc4cccc(Cl)c24)C3)CC1CC#N (stereo unspecified) + CN1CCN(c2cc(C(=O)Nc3cc4cc(-c5cnn(C)c5)ccc4cn3)ccn2)CC1"
assigned_label = "Yes"

[[record]]
molecule = "COc1cccc2c1C(=O)c1c(O)c3c(c(O)c1C2=O)CC(O)(C(=O)CO)CC3OC1CC(N)C(O)C(C)O1 (stereo unspecified) + CNC(=O)c1ccc(Nc2nc(OC3CCCC3)c3c(-c4ccc5nc(C)oc5c4)c[nH]c3n2)c(OC)c1"
assigned_label = "No"

[[record]]
molecule = "CC1COCCN1c1cc(C2(S(C)(=N)=O)CC2)nc(-c2ccnc3[nH]ccc23)n1 (stereo unspecified) + CNC(=O)c1ccc(Nc2nc(OC3CCCC3)c3c(-c4ccc5nc(C)oc5c4)c[nH]c3n2)c(OC)c1"
assigned_label = "No"


###

- System: 648629-189-R-J1-PDC complex spheroids viability
- Assay: Anticancer human tumor 648629-189-R-J1-PDC cell line growth inhibition [CLK]
- Details: curve of first compound; second compound 0.316 µM
- Text: A high-throughput screen of multi-cell type tumor spheroids was designed to identify active combinations of […] and targeted small molecules. Complex spheroids include a stromal component modeled by human endothelial cells (HUVEC) and fibroblasts modeled by human mesenchymal stem cells (MSCs). […] Compounds. […] If the clinical Cmax for an agent had not been determined, the highest concentration tested was 10 microM. […]
// reported IC50 for each item listed
Readout name: IC50

[[record]]
molecule = "CC1COCCN1c1cc(C2(S(C)(=N)=O)CC2)nc(-c2ccnc3[nH]ccc23)n1 (stereo not given) + CNC(=O)c1ccc(Nc2nc(OC3CCCC3)c3c(-c4ccc5nc(C)oc5c4)c[nH]c3n2)c(OC)c1"
tgt = "648629-189-R-J1-PDC complex spheroids viability"
readout_name = "IC50"
result = "< 0.0316 µM"

[[record]]
molecule = "COC1C=CCC(C)C(C)S(=O)(=O)NC(=O)c2ccc3c(c2)N(CC2CCC21)CC1(CCCc2cc(Cl)ccc21)CO3 (stereo not given) + CNC(=O)c1ccc(Nc2nc(OC3CCCC3)c3c(-c4ccc5nc(C)oc5c4)c[nH]c3n2)c(OC)c1"
tgt = "648629-189-R-J1-PDC complex spheroids viability"
readout_name = "IC50"
result = "< 0.0316 µM"

[[record]]
molecule = "C#Cc1c(F)ccc2cc(O)cc(-c3ncc4c(N5CC6CCC(C5)N6)nc(OCC56CCCN5CC(F)C6)nc4c3F)c12 (stereo not given) + CN1CCN(c2cc(C(=O)Nc3cc4cc(-c5cnn(C)c5)ccc4cn3)ccn2)CC1"
tgt = "648629-189-R-J1-PDC complex spheroids viability"
readout_name = "IC50"
result = "3.62 µM"

[[record]]
molecule = "C=CC(=O)N1CCN(c2nc(=O)n(-c3c(C)ccnc3C(C)C)c3nc(-c4c(O)cccc4F)c(F)cc23)C(C)C1 (stereo not given) + CNC(=O)c1ccc(Nc2nc(OC3CCCC3)c3c(-c4ccc5nc(C)oc5c4)c[nH]c3n2)c(OC)c1"
tgt = "648629-189-R-J1-PDC complex spheroids viability"
readout_name = "IC50"
result = "< 0.0316 µM"

[[record]]
molecule = "CC1COCCN1c1cc(C2(S(C)(=N)=O)CC2)nc(-c2ccnc3[nH]ccc23)n1 (stereo not given) + CN1CCN(c2cc(C(=O)Nc3cc4cc(-c5cnn(C)c5)ccc4cn3)ccn2)CC1"
tgt = "648629-189-R-J1-PDC complex spheroids viability"
readout_name = "IC50"
result = "< 0.0316 µM"

[[record]]
molecule = "CC(CO)NC(=O)c1cc(-c2ccc(Cl)cc2)nn(-c2cnn(C)c2)c1=O (stereo not given) + CNC(=O)c1ccc(Nc2nc(OC3CCCC3)c3c(-c4ccc5nc(C)oc5c4)c[nH]c3n2)c(OC)c1"
tgt = "648629-189-R-J1-PDC complex spheroids viability"
readout_name = "IC50"
result = "< 0.0316 µM"

[[record]]
molecule = "CC(Nc1ccc2c(c1)OCCn1cc(N3C(=O)OCC3C(F)F)nc1-2)C(N)=O (stereo not given) + CN1CCN(c2cc(C(=O)Nc3cc4cc(-c5cnn(C)c5)ccc4cn3)ccn2)CC1"
tgt = "648629-189-R-J1-PDC complex spheroids viability"
readout_name = "IC50"
result = "< 0.0316 µM"

[[record]]
molecule = "CC(C)CC(NC(=O)C(Cc1ccccc1)NC(=O)c1cnccn1)B(O)O (stereo not given) + CNC(=O)c1ccc(Nc2nc(OC3CCCC3)c3c(-c4ccc5nc(C)oc5c4)c[nH]c3n2)c(OC)c1"
tgt = "648629-189-R-J1-PDC complex spheroids viability"
readout_name = "IC50"
result = "< 0.000949 µM"

[[record]]
molecule = "C=C(F)C(=O)N1CCN(c2nc(OCC3CCCN3C)nc3c2CCN(c2cccc4cccc(Cl)c24)C3)CC1CC#N (stereo not given) + CNC(=O)c1ccc(Nc2nc(OC3CCCC3)c3c(-c4ccc5nc(C)oc5c4)c[nH]c3n2)c(OC)c1"
tgt = "648629-189-R-J1-PDC complex spheroids viability"
readout_name = "IC50"
result = "< 0.0316 µM"

[[record]]
molecule = "CC(C)CC(NC(=O)C(Cc1ccccc1)NC(=O)c1cnccn1)B(O)O (stereo not given) + CN1CCN(c2cc(C(=O)Nc3cc4cc(-c5cnn(C)c5)ccc4cn3)ccn2)CC1"
tgt = "648629-189-R-J1-PDC complex spheroids viability"
readout_name = "IC50"
result = "< 0.000949 µM"

